// provenance: ChEMBL document CHEMBL4033712

test system: UACC-62; experiment: Anticancer activity against human UACC62 cells assessed as cell growth at 10 uM after 48 hrs by sulforhodamine B assay relative to control; type: functional; settings: UACC-62, 48 h, read-out: Activity
Endpoint label: growth at 10 µM (%)
Answer in %, number only, no unit symbol.

For orientation, consider the following solved cases.
| Molecule | growth at 10 µM / % |
| --- | --- |
| C=C1CC[C@@H]2[C@](C)(COC(C)=O)[C@H](OC(C)=O)CC[C@@]2(C)[C@H]1CC(Nc1ccc(S(=O)(=O)Nc2cc(C)on2)cc1)C1=CCOC1=O (stereo partly specified) | 19.8 |
| C=C1CC[C@@H]2[C@](C)(COC(C)=O)[C@H](OC(C)=O)CC[C@@]2(C)[C@H]1CC(Nc1ccc(S(=O)(=O)Nc2nccs2)cc1)C1=CCOC1=O (stereo partly specified) | 21.2 |
| C=C1CC[C@@H]2[C@](C)(COC(C)=O)[C@H](OC(C)=O)CC[C@@]2(C)[C@H]1CC(Nc1ccc(S(=O)(=O)Nc2ccc(Cl)nn2)cc1)C1=CCOC1=O (stereo partly specified) | -50 |
| C=C1CC[C@@H]2[C@](C)(COC(C)=O)[C@H](OC(C)=O)CC[C@@]2(C)[C@H]1CC(Nc1ccc(S(=O)(=O)Nc2nccc(C)n2)cc1)C1=CCOC1=O (stereo partly specified) | 24.2 |

Inquiry: Param readout = growth at 10 µM; param system = UACC-62; param query = C=C1CC[C@@H]2[C@](C)(COC(C)=O)[C@H](OC(C)=O)CC[C@@]2(C)[C@H]1CC(Nc1ccc(S(=O)(=O)Nc2ncccn2)cc1)C1=CCOC1=O (stereo partly specified) ; response: value
Reply text: 3.93

Inquiry: Could you do the same for C=C1CC[C@@H]2[C@](C)(COC(C)=O)[C@H](OC(C)=O)CC[C@@]2(C)[C@H]1CC(Nc1ccc(S(=O)(=O)Nc2nc(C)cc(C)n2)cc1)C1=CCOC1=O (stereo partly specified) , please?
Reply text: 32.9
